test: Stability assay in 25% TIDE 2X detergent with DTPA (residual Abz-AGLA-Nba protease activity); type: physicochemical; conditions: 60 min at 32°C; variant residual AGLA activity divided by wild-type residual activity
measurementKind: PI (relative stability), 25% TIDE 2X with DTPA
Lab note: jot the number down without any unit.

Quick one: PI (relative stability), 25% TIDE 2X with DTPA for G196D: single-substitution thermolysin variant (SEQ ID NO:3 numbering) (protein, listed as Geobacillus caldoproteolyticus) ITGTSTVGVGRGVLGDQKNINTTYSTYYYLQDNTRGNGIFTYDAKYRTTLPGSLWADADNQFFASYDAPAVDAHYYAGVTYDYYKNVHNRLSYDGNNAAIRSSVHYSQGYNNAFWNGSQMVYGDGDGQTFIPLSGGIDVVAHELTHAVTDYTAGLIYQNESGAINEAISDIFGTLVEFYANKNPDWEIGEDVYTPDISGDSLRSMSDPAKYGDPDHYSKRYTGTQDNGGVHINSGIINKAAYLISQGGTHYGVSVVGIGRDKLGKIFYRALTQYLTPTSNFSQLRAAAVQSATDLYGSTSQEVASVKQAFDAVGVK ?
1.02

The values you see were collected from patent US9976134B2.
